Each recorded value in this set is attributed to patent US4771068A.

Provide the recorded LD50 at 336 h for the entries that follow.
Experiment: Acute toxicity
Conditions: mouse, in vivo, ip; ddY mice, intraperitoneally once, 14 days observation
One number for each entry, in mg/kg.

Record excerpt, results attached:
[
  {
    "molecule": "CO[C@@]12[C@H](COC(N)=O)C3=C(C(=O)C(C)=C(NCCCCSC(C)=O)C3=O)N1C[C@@H]1N[C@@H]12 [Compound 9]",
    "measurement.label": "LD50 at 336 h",
    "endpoint.unit": "mg/kg",
    "value.reported": 90
  },
  {
    "molecule": "C=C1C2=C(C(=O)C(C)=C(NCCSC(C)=O)C2=O)N2C[C@H]3[C@H](N3C)[C@]12O (stereo partly drawn) [Compound 4]",
    "measurement.label": "LD50 at 336 h",
    "endpoint.unit": "mg/kg",
    "value.reported": 45
  },
  {
    "molecule": "CO[C@@]12[C@H](COC(N)=O)C3=C(C(=O)C(C)=C(NCCSC(=O)c4ccc(F)cc4)C3=O)N1C[C@@H]1N[C@@H]12 [Compound 18]",
    "measurement.label": "LD50 at 336 h",
    "endpoint.unit": "mg/kg",
    "value.reported": 6
  },
  {
    "molecule": "CO[C@@]12[C@H](COC(N)=O)C3=C(C(=O)C(C)=C(NCCSC(=O)c4ccc(Br)cc4)C3=O)N1C[C@@H]1N[C@@H]12 [Compound 21]",
    "measurement.label": "LD50 at 336 h",
    "endpoint.unit": "mg/kg",
    "value.reported": 9.4
  }
]

What value of LD50 at 336 h has been recorded for this entry: CC1=C(NCCSC(=O)c2ccc([N+](=O)[O-])cc2)C(=O)C2=C(C1=O)N1C[C@H]3[C@H](N3C)[C@]1(O)[C@H]2COC(N)=O (stereo partly drawn) [Compound 25]
33.8

----------
System: Sarcoma 180 solid tumour
Test: animal or person
Details: chemotherapeutic index
Provide the recorded CI (LD50/ED50) for the entries that follow.
Give bare numbers.

Record excerpt, results attached:
[
  {
    "compound": "CO[C@@]12[C@H](COC(N)=O)C3=C(C(=O)C(C)=C(NCCSC(C)=S)C3=O)N1C[C@H]1[C@@H]2N1C (stereo partly shown)",
    "assay.system": "Sarcoma 180 solid tumour",
    "measurement.label": "CI (LD50/ED50)",
    "value.reported": 4.0
  },
  {
    "compound": "CC(=S)SCCNC1=C(C)C(=O)C2=C(C1=O)[C@H](COC(N)=O)[C@@]1(O)[C@@H]3[C@H](CN21)N3C (stereo partly shown)",
    "assay.system": "Sarcoma 180 solid tumour",
    "measurement.label": "CI (LD50/ED50)",
    "value.reported": 3.9
  }
]

I'm curious: which CI (LD50/ED50) was measured for CO[C@@]12[C@H](COC(N)=O)C3=C(C(=O)C(C)=C(NCCCCSC(C)=O)C3=O)N1C[C@@H]1N[C@@H]12 tested on Sarcoma 180 solid tumour?
4.1

----------
Test system: Sarcoma 180 solid tumour
Experiment: animal or person
Settings: CI of test compound divided by CI of mitomycin C as control in the same condition
Provide the recorded CIc for the entries that follow.
One number for each entry.

Record excerpt, results attached:
[
  {
    "compound": "CO[C@@]12[C@H](COC(N)=O)C3=C(C(=O)C(C)=C(NCCSC(C)=S)C3=O)N1C[C@H]1[C@@H]2N1C (stereo partly shown) [Compound 28]",
    "value.reported": 1.1
  },
  {
    "compound": "COc1ccc(C(=O)SCCNC2=C(C)C(=O)C3=C(C2=O)[C@H](COC(N)=O)[C@@]2(O)[C@@H]4[C@H](CN32)N4C)cc1 (stereo partly shown) [Compound 24]",
    "value.reported": 1.3
  },
  {
    "compound": "CO[C@@]12[C@H](COC(N)=O)C3=C(C(=O)C(C)=C(NCCCCCCSC(C)=O)C3=O)N1C[C@@H]1N[C@@H]12 [Compound 11]",
    "value.reported": 3.9
  },
  {
    "compound": "CO[C@@]12[C@H](COC(N)=O)C3=C(C(=O)C(C)=C(NCCSC(=O)c4ccc(Br)cc4)C3=O)N1C[C@@H]1N[C@@H]12 [Compound 21]",
    "value.reported": 1.9
  },
  {
    "compound": "CO[C@@]12[C@H](COC(N)=O)C3=C(C(=O)C(C)=C(NCCSC(=O)c4ccccc4)C3=O)N1C[C@@H]1N[C@@H]12 [Compound 13]",
    "value.reported": 0.91
  },
  {
    "compound": "CO[C@@]12[C@H](COC(N)=O)C3=C(C(=O)C(C)=C(NCCCCCCCCSC(=O)c4ccc(F)cc4)C3=O)N1C[C@@H]1N[C@@H]12 [Compound 20]",
    "value.reported": 1.6
  }
]

Pending compound:
What value of CIc has been recorded for this entry: CC(=O)SCCNC1=C(C)C(=O)C2=C(C1=O)[C@H](COC(N)=O)[C@@]1(O)[C@@H]3[C@H](CN21)N3C (stereo partly shown) [Compound 2]
1.9
